Provide the recorded binding signal for the entries that follow.
Target: SmpOUNa (plasmid pC02)
Chain: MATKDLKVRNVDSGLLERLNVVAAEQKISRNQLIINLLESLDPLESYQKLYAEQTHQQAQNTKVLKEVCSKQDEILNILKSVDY
Experiment: SPR (ReDCaT); 300 mM NaCl; 10 mM HEPES, 3 mM EDTA, 0.05% Tween 20, NaCl 150 mM (SmpO49 screens), 300 mM (SmpO45, SmpO408, SmpOUNa screens) or 250 mM (Table S4); pH and temperature not stated; protein 1 uM; high values mean tight binding
Conditions: protein: recombinant; tags: His6-TEV, cleaved; chain copies: 4; dsDNA, one strand shown
One number for each entry, in %Rmax.

Observe how each entry below is paired with its result.
AAGATAAATGTTTAAAACCCTTGAAATATC: 1.56
TTGAAATATCTGGCTTCGCCAGATTACCCA: 1.29
AGATTACCCATTATAAAATGGGTACATATT: 12.5

For each listed entry, give its binding signal.
1. TTAATTTTTGTGACCCCCATAAGATAAATG
2. GTGTGACAATTTAATTTTTGTGACCCCCAT
3. TGTCACAAAAGTGTGACAATTTAATTTTTG

Output line:
[58.4, 53.3, 17]

---

Provide the recorded binding signal for the entries that follow.
Molecular target: SmpO45 (Staphylococcus aureus plasmid pWBG745, UniProt UPI0001BEA8D3 1-84)
Sequence: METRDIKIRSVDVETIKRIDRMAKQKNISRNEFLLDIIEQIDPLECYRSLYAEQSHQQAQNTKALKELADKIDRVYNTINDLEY
Test: SPR (ReDCaT); 300 mM NaCl; 10 mM HEPES, 3 mM EDTA, 0.05% Tween 20, NaCl 150 mM (SmpO49 screens), 300 mM (SmpO45, SmpO408, SmpOUNa screens) or 250 mM (Table S4); pH and temperature not stated; protein 1 uM; high values mean tight binding
Details: protein: recombinant; tags: His6-TEV, cleaved; chain copies: 4; dsDNA, one strand shown
Answers are plain numbers, in %Rmax.

Observe how each entry below is paired with its result.
ATAGTGGGGTCACTTT: 31.7
GACACTATAGTTTATTGTGGGGTCACTTTA: 29.5
ATTGTGGGGTCACTTT: 36.5
ATTGTGGGGACACTTT: 6.42
ATTGTGGGGTCTCTTT: 7.81
TTGCCAGCCACCCCATAAAATATGGGGTCA: 0.769

# ---- query sequence ----
Input line: binding signal lookup needed for "ATTGTGGGGTCACTTA" , thanks.
Output line: 43.4

---

Target: SmpO45 (Staphylococcus aureus plasmid pWBG745, UniProt UPI0001BEA8D3 1-84)
Sequence: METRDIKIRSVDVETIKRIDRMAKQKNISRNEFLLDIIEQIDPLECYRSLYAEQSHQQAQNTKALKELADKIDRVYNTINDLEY
Experiment: SPR (ReDCaT); 300 mM NaCl; 10 mM HEPES, 3 mM EDTA, 0.05% Tween 20, NaCl 150 mM (SmpO49 screens), 300 mM (SmpO45, SmpO408, SmpOUNa screens) or 250 mM (Table S4); pH and temperature not stated; protein 1 uM; high values mean tight binding
Details: protein: recombinant; tags: His6-TEV, cleaved; chain copies: 4; dsDNA, one strand shown
Provide the recorded binding signal for the entries that follow.
Give the number first and the unit second.

AATGTGGGGTCACTTT: 32.6 %Rmax
ATTGAGGGGTCACTTT: 13.5 %Rmax
ATTGTGGGGTCACATT: 38.9 %Rmax
TTTATTGTGGGGTCACTTTAAATTCTTTAA: 29.4 %Rmax
TTTGTGGGGTCACTTT: 42.6 %Rmax

For each listed entry, give its binding signal.
1. GGTCACTTTAAATTCTTTAAAACCCTTGAA
2. TATGGGGTCATATTTCCCTTATGCTCTTAC
3. ATTCTGGGGTCACTTT

Output line:
1. 17.8 %Rmax
2. 21.2 %Rmax
3. 33.4 %Rmax

---

Provide the recorded binding signal for the entries that follow.
Molecular target: SmpOSep (Staphylococcus epidermidis VCU120)
Chain: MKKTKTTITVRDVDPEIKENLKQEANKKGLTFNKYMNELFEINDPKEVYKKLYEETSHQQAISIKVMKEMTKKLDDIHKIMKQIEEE
Assay: SPR (ReDCaT); 250 mM NaCl; 10 mM HEPES, 3 mM EDTA, 0.05% Tween 20, NaCl 150 mM (SmpO49 screens), 300 mM (SmpO45, SmpO408, SmpOUNa screens) or 250 mM (Table S4); pH and temperature not stated; protein 1 uM; high values mean tight binding
Conditions: protein: recombinant; tags: His6-TEV, cleaved; chain copies: 4; dsDNA, one strand shown

Observe how each entry below is paired with its result.
CCGATGATAGCAAATT: 0.6 %Rmax
AATATGGGGTCATATT: 0.5 %Rmax
AAAATGGGTACATATT: 1.5 %Rmax

Input line: binding signal lookup needed for "ATTGTGGGGTCACTTT" , thanks.
Output line: 2.9 %Rmax

---

Target: SmpO408 (Staphylococcus aureus M0408)
Chain: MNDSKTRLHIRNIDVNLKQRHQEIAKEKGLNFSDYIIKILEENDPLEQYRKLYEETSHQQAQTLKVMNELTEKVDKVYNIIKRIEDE
Assay: SPR (ReDCaT); 300 mM NaCl; 10 mM HEPES, 3 mM EDTA, 0.05% Tween 20, NaCl 150 mM (SmpO49 screens), 300 mM (SmpO45, SmpO408, SmpOUNa screens) or 250 mM (Table S4); pH and temperature not stated; protein 1 uM; high values mean tight binding
Settings: protein: recombinant; tags: His6-TEV, cleaved; chain copies: 4; dsDNA, one strand shown
Test readout: binding signal (%Rmax)
Numbers only, in %Rmax.

TTTTAGGCGCCTAATA: 64.4
TTATAGGCGCGTAATA: 34.5
TTATACGCGCCTAATA: 35.5
GGTACATTTTGGGTACAAAACGGTTTTATA: 4.6

For each listed entry, give its binding signal.
1. TTATAGGCGCCAAATA
2. ATATAGGCGCCTAATA
3. TTATTGGCGCCTAATA
4. AATATATAGGGGTACATTTTGGGTACAAAA
5. TTATAGGGGCCTAATA
6. CGGTTTTATAGGCGCCTAATAAAAACCTCT
7. TTATAGGCGCCTAATT

Output line:
68.3
67.4
67.9
5.29
7.62
109
65.1

For each listed entry, give its binding signal.
1. TTATAGGCGCCTAATA
2. TAATAGGTGGCAAATTTCCCTTATGCTCTT

Output line:
63.9
60.1

For each listed entry, give its binding signal.
1. TTATAGGCGCCTATTA
2. TTATAGGCCCCTAATA
3. TTATAGGCGCCTTATA
4. TTAAAGGCGCCTAATA

Output line:
1: 63; 2: 6.86; 3: 63.9; 4: 69

---

Target: SmpO49 (Staphylococcus aureus plasmid pWBG749, UniProt UPI0001BEA96A 1-84)
Sequence: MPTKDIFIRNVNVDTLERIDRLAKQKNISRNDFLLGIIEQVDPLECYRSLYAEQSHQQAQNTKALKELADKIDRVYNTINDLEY
Assay: SPR (ReDCaT); 150 mM NaCl; 10 mM HEPES, 3 mM EDTA, 0.05% Tween 20, NaCl 150 mM (SmpO49 screens), 300 mM (SmpO45, SmpO408, SmpOUNa screens) or 250 mM (Table S4); pH and temperature not stated; protein 1 uM; high values mean tight binding
Conditions: protein: recombinant; tags: His6-TEV, cleaved; chain copies: 4; dsDNA, one strand shown
# binarize binding signal: threshold 5 %Rmax inclusive, high side true, low side false

Look over these answered cases.
ATTATGATATCACTAT: true
GATGATAGCAAATTCCCCTTATGCTCTTAC: false
TTTATGATATCACAAT: true
CCGATGATAGCAAATTCCCCTTATGCTCTT: false
CTATCATTGTCCGATGATAGCAAATTCCCC: false
TATATGATATCACTAT: true
GTTTTTATGATATCACTATGAAATGTCCTA: true
GACACTAGGTGTTTTTATGATATCACTATG: true

Input line: Determine whether measured binding signal meets or exceeds 5 %Rmax for "TTTATGATATCAGTAT"
Output line: true

---

Molecular target: SmpO408 (Staphylococcus aureus M0408)
Chain: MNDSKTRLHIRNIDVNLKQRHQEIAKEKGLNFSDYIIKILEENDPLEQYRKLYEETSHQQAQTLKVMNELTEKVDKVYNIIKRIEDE
Experiment: SPR (ReDCaT); 250 mM NaCl; 10 mM HEPES, 3 mM EDTA, 0.05% Tween 20, NaCl 150 mM (SmpO49 screens), 300 mM (SmpO45, SmpO408, SmpOUNa screens) or 250 mM (Table S4); pH and temperature not stated; protein 1 uM; high values mean tight binding
Conditions: protein: recombinant; tags: His6-TEV, cleaved; chain copies: 4; dsDNA, one strand shown
Provide the recorded binding signal for the entries that follow.
Give bare numbers, in %Rmax.

Observe how each entry below is paired with its result.
TTATAGGCGCCTAATA: 52.8
TAATAGGTGGCAAATT: 34.2

For each listed entry, give its binding signal.
1. AATATGGGGTCATATT
2. GTGACCCCCATAAGAT

Output line:
0.9
2.9
